Each entry below carries its reported zone of inhibition at 50 µg/disc.
Tested on: Staphylococcus aureus
Assay Method Text: Antimicrobial activity against Staphylococcus aureus clinical isolate at 50 ug/disk incubated for 20 +/- 4 hrs by agar disk diffusion method
Format: functional
Experimental Parameters: read-out: DIZ
Give just the numeric value; mm need not be written.

| Line Notation | zone of inhibition at 50 µg/disc / mm |
| --- | --- |
| O=C(Nc1nnc(-c2ccc(F)cc2)o1)c1ccc(Cl)cc1 | 17 |
| O=C(Nc1nnc(-c2ccc(C(F)(F)F)cc2)o1)c1cccc(Cl)c1 | 28 |
| O=C(Nc1ncc(-c2ccc(F)cc2)o1)c1ccc(Cl)cc1 | 20 |

Okay, next one:
Incoming: Note zone of inhibition at 50 µg/disc for the compound shown: `O=C(Nc1nnc(-c2ccc(C(F)(F)F)cc2)o1)c1ccc(Cl)nc1`
Outgoing: 30

Source listed as ChEMBL document CHEMBL4364345.
